- assay.text: pKa of brivanib alaninate
- Format: physicochemical
- test.context: free base
observed.property: pKa

# compound, reported.result
records = [
    ("Cc1cc2c(F)c(Oc3ncnn4cc(OC[C@@H](C)OC(=O)[C@H](C)N)c(C)c34)ccc2[nH]1 [Brivanib alaninate]", 6.9),
]
